Where do these numbers come from? They come from BigSolDB 2.1.

# details: in isopropanol, 273.15 K
measured-quantity: solubility (mole fraction)
Provide a numeric answer; units are not to be included.

I would be grateful if you could share the reported solubility (mole fraction) for CC(C)N1C(=O)N(c2ccccc2)CSC1=NC(C)(C)C .
0.00586

---

# details: in n-butanol, 273.15 K
measured-quantity: solubility (mole fraction)
Provide a numeric answer; units are not to be included.

I would be grateful if you could share the reported solubility (mole fraction) for CC(C)N1C(=O)N(c2ccccc2)CSC1=NC(C)(C)C .
0.00627

---

# details: in n-propanol, 273.15 K
measured-quantity: solubility (mole fraction)
Provide a numeric answer; units are not to be included.

I would be grateful if you could share the reported solubility (mole fraction) for CC(C)N1C(=O)N(c2ccccc2)CSC1=NC(C)(C)C .
0.00564

---

# details: in ethyl acetate, 288.15 K
measured-quantity: solubility (mole fraction)

I would be grateful if you could share the reported solubility (mole fraction) for CC(C)N1C(=O)N(c2ccccc2)CSC1=NC(C)(C)C .
0.0679

---

# details: in DMF, 293.15 K
measured-quantity: solubility (mole fraction)
Provide a numeric answer; units are not to be included.

I would be grateful if you could share the reported solubility (mole fraction) for CC(C)N1C(=O)N(c2ccccc2)CSC1=NC(C)(C)C .
0.0725

---

# details: in methanol, 303.15 K
measured-quantity: solubility (mole fraction)
Provide a numeric answer; units are not to be included.

I would be grateful if you could share the reported solubility (mole fraction) for CC(C)N1C(=O)N(c2ccccc2)CSC1=NC(C)(C)C .
0.0154

---

# details: in DMF, 288.15 K
measured-quantity: solubility (mole fraction)
Provide a numeric answer; units are not to be included.

I would be grateful if you could share the reported solubility (mole fraction) for CC(C)N1C(=O)N(c2ccccc2)CSC1=NC(C)(C)C .
0.0608

---

# details: in acetonitrile, 303.15 K
measured-quantity: solubility (mole fraction)
Provide a numeric answer; units are not to be included.

I would be grateful if you could share the reported solubility (mole fraction) for CC(C)N1C(=O)N(c2ccccc2)CSC1=NC(C)(C)C .
0.0284

---

# details: in acetonitrile, 293.15 K
measured-quantity: solubility (mole fraction)

I would be grateful if you could share the reported solubility (mole fraction) for CC(C)N1C(=O)N(c2ccccc2)CSC1=NC(C)(C)C .
0.0171

---

# details: in toluene, 288.15 K
measured-quantity: solubility (mole fraction)

I would be grateful if you could share the reported solubility (mole fraction) for CC(C)N1C(=O)N(c2ccccc2)CSC1=NC(C)(C)C .
0.0924

---

# details: in toluene, 283.15 K
measured-quantity: solubility (mole fraction)

I would be grateful if you could share the reported solubility (mole fraction) for CC(C)N1C(=O)N(c2ccccc2)CSC1=NC(C)(C)C .
0.0782

---

# details: in toluene, 313.15 K
measured-quantity: solubility (mole fraction)

I would be grateful if you could share the reported solubility (mole fraction) for CC(C)N1C(=O)N(c2ccccc2)CSC1=NC(C)(C)C .
0.198

---

# details: in n-octanol, 308.15 K
measured-quantity: solubility (mole fraction)

I would be grateful if you could share the reported solubility (mole fraction) for CC(C)N1C(=O)N(c2ccccc2)CSC1=NC(C)(C)C .
0.0505

---

# details: in water, 278.15 K
measured-quantity: solubility (mole fraction)
Provide a numeric answer; units are not to be included.

I would be grateful if you could share the reported solubility (mole fraction) for CC(C)N1C(=O)N(c2ccccc2)CSC1=NC(C)(C)C .
3.48e-05

---

# details: in DMF, 318.15 K
measured-quantity: solubility (mole fraction)
Provide a numeric answer; units are not to be included.

I would be grateful if you could share the reported solubility (mole fraction) for CC(C)N1C(=O)N(c2ccccc2)CSC1=NC(C)(C)C .
0.162

---

# details: in acetone, 278.15 K
measured-quantity: solubility (mole fraction)

I would be grateful if you could share the reported solubility (mole fraction) for CC(C)N1C(=O)N(c2ccccc2)CSC1=NC(C)(C)C .
0.0361

---

# details: in ethanol, 313.15 K
measured-quantity: solubility (mole fraction)
Provide a numeric answer; units are not to be included.

I would be grateful if you could share the reported solubility (mole fraction) for CC(C)N1C(=O)N(c2ccccc2)CSC1=NC(C)(C)C .
0.0342

---

# details: in n-propanol, 318.15 K
measured-quantity: solubility (mole fraction)
Provide a numeric answer; units are not to be included.

I would be grateful if you could share the reported solubility (mole fraction) for CC(C)N1C(=O)N(c2ccccc2)CSC1=NC(C)(C)C .
0.0668

---

# details: in acetonitrile, 273.15 K
measured-quantity: solubility (mole fraction)
Provide a numeric answer; units are not to be included.

I would be grateful if you could share the reported solubility (mole fraction) for CC(C)N1C(=O)N(c2ccccc2)CSC1=NC(C)(C)C .
0.00534

---

# details: in toluene, 293.15 K
measured-quantity: solubility (mole fraction)
Provide a numeric answer; units are not to be included.

I would be grateful if you could share the reported solubility (mole fraction) for CC(C)N1C(=O)N(c2ccccc2)CSC1=NC(C)(C)C .
0.11

---

# details: in water, 318.15 K
measured-quantity: solubility (mole fraction)

I would be grateful if you could share the reported solubility (mole fraction) for CC(C)N1C(=O)N(c2ccccc2)CSC1=NC(C)(C)C .
0.000144

---

# details: in toluene, 303.15 K
measured-quantity: solubility (mole fraction)
Provide a numeric answer; units are not to be included.

I would be grateful if you could share the reported solubility (mole fraction) for CC(C)N1C(=O)N(c2ccccc2)CSC1=NC(C)(C)C .
0.15

---

# details: in isopropanol, 288.15 K
measured-quantity: solubility (mole fraction)
Provide a numeric answer; units are not to be included.

I would be grateful if you could share the reported solubility (mole fraction) for CC(C)N1C(=O)N(c2ccccc2)CSC1=NC(C)(C)C .
0.0131

---

# details: in isopropanol, 308.15 K
measured-quantity: solubility (mole fraction)
Provide a numeric answer; units are not to be included.

I would be grateful if you could share the reported solubility (mole fraction) for CC(C)N1C(=O)N(c2ccccc2)CSC1=NC(C)(C)C .
0.031

---

# details: in n-propanol, 298.15 K
measured-quantity: solubility (mole fraction)
Provide a numeric answer; units are not to be included.

I would be grateful if you could share the reported solubility (mole fraction) for CC(C)N1C(=O)N(c2ccccc2)CSC1=NC(C)(C)C .
0.0254

---

# details: in ethyl acetate, 303.15 K
measured-quantity: solubility (mole fraction)
Provide a numeric answer; units are not to be included.

I would be grateful if you could share the reported solubility (mole fraction) for CC(C)N1C(=O)N(c2ccccc2)CSC1=NC(C)(C)C .
0.116

---

# details: in n-propanol, 283.15 K
measured-quantity: solubility (mole fraction)

I would be grateful if you could share the reported solubility (mole fraction) for CC(C)N1C(=O)N(c2ccccc2)CSC1=NC(C)(C)C .
0.011

---

# details: in ethyl acetate, 298.15 K
measured-quantity: solubility (mole fraction)
Provide a numeric answer; units are not to be included.

I would be grateful if you could share the reported solubility (mole fraction) for CC(C)N1C(=O)N(c2ccccc2)CSC1=NC(C)(C)C .
0.0971

---

# details: in isopropanol, 298.15 K
measured-quantity: solubility (mole fraction)
Provide a numeric answer; units are not to be included.

I would be grateful if you could share the reported solubility (mole fraction) for CC(C)N1C(=O)N(c2ccccc2)CSC1=NC(C)(C)C .
0.0207

---

# details: in water, 273.15 K
measured-quantity: solubility (mole fraction)
Provide a numeric answer; units are not to be included.

I would be grateful if you could share the reported solubility (mole fraction) for CC(C)N1C(=O)N(c2ccccc2)CSC1=NC(C)(C)C .
2.84e-05

---

# details: in ethanol, 278.15 K
measured-quantity: solubility (mole fraction)

I would be grateful if you could share the reported solubility (mole fraction) for CC(C)N1C(=O)N(c2ccccc2)CSC1=NC(C)(C)C .
0.007

---

# details: in water, 313.15 K
measured-quantity: solubility (mole fraction)

I would be grateful if you could share the reported solubility (mole fraction) for CC(C)N1C(=O)N(c2ccccc2)CSC1=NC(C)(C)C .
0.00012

---

# details: in n-octanol, 273.15 K
measured-quantity: solubility (mole fraction)
Provide a numeric answer; units are not to be included.

I would be grateful if you could share the reported solubility (mole fraction) for CC(C)N1C(=O)N(c2ccccc2)CSC1=NC(C)(C)C .
0.00824

---

# details: in acetone, 288.15 K
measured-quantity: solubility (mole fraction)
Provide a numeric answer; units are not to be included.

I would be grateful if you could share the reported solubility (mole fraction) for CC(C)N1C(=O)N(c2ccccc2)CSC1=NC(C)(C)C .
0.0504

---

# details: in methanol, 308.15 K
measured-quantity: solubility (mole fraction)
Provide a numeric answer; units are not to be included.

I would be grateful if you could share the reported solubility (mole fraction) for CC(C)N1C(=O)N(c2ccccc2)CSC1=NC(C)(C)C .
0.0184
